Some variants, each annotated with its measured protein stability index.
B1: SMG5 (parent)
chain: TNPDLIIVCAQSSQSLWNRLSVLL

- Variants of: B1
- experimentSummary: protein stability index of a GFP-peptide fusion (GPS, HEK-293T) (PSI 1-6); higher = more stable;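 further: lentivirally expressed fusions sorted by FACS into six bins by GFP to DsRed ratio, PSI derived from sequencing read proportions per bin multiplied by bin number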
- assayConditions: c terminus: a fixed tail appended
reportedEndpoint: protein stability index

>>> reportedmeasurement("T1H")
2.44
>>> reportedmeasurement("V22W")
1.24
>>> reportedmeasurement("C9G")
1.45
>>> reportedmeasurement("L24D")
2.8
>>> reportedmeasurement("L5F")
3.72
>>> reportedmeasurement("S13G")
2.42
>>> reportedmeasurement("A10S")
2.94
>>> reportedmeasurement("I6N")
2.4
>>> reportedmeasurement("R19A")
1.74
>>> reportedmeasurement("L16I")
2.02
>>> reportedmeasurement("L5S")
2.17
>>> reportedmeasurement("L23P")
3.47
>>> reportedmeasurement("I7N")
1.64
>>> reportedmeasurement("R19M")
2.1
>>> reportedmeasurement("S13V")
1.88
>>> reportedmeasurement("R19F")
1.84
>>> reportedmeasurement("T1F")
2.28
>>> reportedmeasurement("T1I")
3.34
>>> reportedmeasurement("C9D")
2.29
>>> reportedmeasurement("N2K")
2.66
>>> reportedmeasurement("V8W")
2.69
>>> reportedmeasurement("V8P")
1.31
